// provenance: paper PMC7765920

Molecular target: GST-CLK1cat (amino acids 141–484 of human CLK1) (Homo sapiens, UniProt P49759)
Construct: containing amino acids 141–484 of human CLK1; made in house; host or cells: E. coli
Sequence (P49759 141-484): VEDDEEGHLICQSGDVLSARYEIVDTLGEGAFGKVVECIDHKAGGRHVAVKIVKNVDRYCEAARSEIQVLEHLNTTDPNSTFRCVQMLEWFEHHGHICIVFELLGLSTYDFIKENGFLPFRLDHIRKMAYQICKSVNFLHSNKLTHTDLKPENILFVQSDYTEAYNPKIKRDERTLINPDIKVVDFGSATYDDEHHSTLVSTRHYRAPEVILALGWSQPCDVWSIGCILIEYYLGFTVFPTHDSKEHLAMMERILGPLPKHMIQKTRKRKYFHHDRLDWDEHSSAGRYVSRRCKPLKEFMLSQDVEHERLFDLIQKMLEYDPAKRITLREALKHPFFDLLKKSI
Assay: Kinase-GLO luminescent assay of CLK1 catalytic activity
Type: biochemical
Conditions: 1 µM inhibitor concentration; residual activity relative to control without inhibitor; read-out: CLK1 residual activity
Attribute: remaining activity at 1 µM
assay readout: remaining activity at 1 µM (%)

> print(dat)
                               line.notation               assay.readout  observed.measurement
 1      CCOC(=O)Cn1c2cc(OC)ccc2c2ccnc(Cl)c21  remaining activity at 1 µM                    96
 2           Cc1nccc2c1[nH]c1c(Cl)c(Cl)ccc12  remaining activity at 1 µM                    26
 3     COc1ccc2c3ccnc(C)c3n(CCCc3ccccc3)c2c1  remaining activity at 1 µM                    31
 4       COc1ccc2c3ccnc(Cl)c3n(CCCN(C)C)c2c1  remaining activity at 1 µM                    86
 5        CNC(=O)Cn1c2cc(OC)ccc2c2ccnc(C)c21  remaining activity at 1 µM                    87
 6      CCOC(=O)Cn1c2cc(OC)ccc2c2ccnc(CC)c21  remaining activity at 1 µM                    52
 7                COc1ccc2c(c1)[nH]c1cnccc12  remaining activity at 1 µM                    26
 8   CCOC(=O)Cn1c2c(C)nccc2c2ccc(Cl)c(Cl)c21  remaining activity at 1 µM                    71
 9  COc1ccc2c(c1)[nH]c1c(/C=C/c3ccccc3)nccc12  remaining activity at 1 µM                    58
10        C#CCn1c2c(C)nccc2c2ccc(Cl)c(Cl)c21  remaining activity at 1 µM                    34
